Molecular target: KMT9 (Homo sapiens, UniProt Q9Y5N5)
Sequence (Q9Y5N5 1-214): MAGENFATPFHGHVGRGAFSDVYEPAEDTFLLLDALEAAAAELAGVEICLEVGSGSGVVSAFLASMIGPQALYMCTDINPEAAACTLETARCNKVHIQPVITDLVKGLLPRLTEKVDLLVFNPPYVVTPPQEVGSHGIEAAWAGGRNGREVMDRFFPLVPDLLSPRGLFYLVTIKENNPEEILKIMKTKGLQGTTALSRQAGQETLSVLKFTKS
Sequence (Q9UI30 1-120 isoform Q9UI30-2 partner): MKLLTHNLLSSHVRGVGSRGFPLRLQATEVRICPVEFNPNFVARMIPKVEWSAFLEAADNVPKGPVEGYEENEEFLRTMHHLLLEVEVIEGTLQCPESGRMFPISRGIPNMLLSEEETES
Test: KMT9 methyltransferase inhibition assay, MTaseGlo luminescence (from entry 155)
Assay type: biochemical
Conditions: MTaseGlo procedure (entries from 155); 100 nM KMT9, 5 μM ETF1, 1 μM SAM; read-out: Inhibition (IC50)
pIC50: −log10 of the molar value.
Reported pIC50 by item:

COc1cc(OC)cc([C@H]2C[C@@H](n3ccc4c(N)nc(Cl)nc43)[C@H](O)[C@@H]2O)c1 [Compound 664]	6.00 to 7.00
CN(CCCNCCc1ccc(F)cc1)C[C@H]1C[C@@H](n2cc(-c3ccn(Cc4ccccc4)n3)c3c(N)nc(Cl)nc32)[C@H](O)[C@@H]1O [Compound 643]	6.00 to 7.00
Nc1nc(Cl)nc2c1c(-c1nccs1)cn2[C@@H]1CC(CN(CCCNCCc2ccc(F)cc2)c2cn[nH]c2)[C@@H](O)[C@H]1O (single isomer, unassigned) [Compound 543]	6.00 to 7.00
CNc1nc(Cl)nc2c1ccn2[C@@H]1C[C@H](c2ccc(O)cc2)[C@@H](O)[C@H]1O [Compound 656]	5.00 to 6.00
NCc1cccc([C@H]2C[C@@H](n3ccc4c(N)nc(Cl)nc43)[C@H](O)[C@@H]2O)c1 [Compound 660]	> 7.00
Nc1ncnc2c1ccn2[C@@H]1C[C@H](c2cn[nH]c2)[C@@H](O)[C@H]1O [Compound 658]	< 5.00
Cn1cc([C@H]2C[C@@H](n3ccc4c(N)nc(Cl)nc43)[C@H](O)[C@@H]2O)cn1 [Compound 661]	5.00 to 6.00
NCc1cccc([C@H]2C[C@@H](n3ccc4c(N)ncnc43)[C@H](O)[C@@H]2O)c1 [Compound 659]	5.00 to 6.00
Nc1nc(Cl)nc2c1ccn2[C@@H]1C[C@H](c2cn[nH]c2)[C@@H](O)[C@H]1O [Compound 582]	5.00 to 6.00
Nc1nc(Cl)nc2c1c(-c1nccs1)cn2[C@@H]1C[C@H](C2CCN(CCc3ccncc3)CC2)[C@@H](O)[C@H]1O [Compound 514]	6.00 to 7.00

Problem: Report pIC50 for CNc1ncnc2c1ccn2[C@@H]1C[C@H](c2cn[nH]c2)[C@@H](O)[C@H]1O [Compound 657] please.
Result: < 5.00

Problem: Report pIC50 for Nc1nc(Cl)nc2c1c(-c1nc(Cc3ccccc3)cs1)cn2[C@@H]1C[C@H](C2CCN(CC3CCCC3)CC2)[C@@H](O)[C@H]1O [Compound 523] please.
Result: 5.00 to 6.00

Problem: Report pIC50 for COc1ccc([C@H]2C[C@@H](n3ccc4c(N)nc(Cl)nc43)[C@H](O)[C@@H]2O)cn1 [Compound 591] please.
Result: 6.00 to 7.00

Problem: Report pIC50 for Cn1cc(Cl)c(-c2cn([C@@H]3C[C@H](c4cccc(CN5CCC5)c4)[C@@H](O)[C@H]3O)c3nc(Cl)nc(N)c23)n1 [Compound 675] please.
Result: 6.00 to 7.00

Problem: Report pIC50 for Nc1nc(Cl)nc2c1c(-c1nc(Cc3ccccc3)cs1)cn2[C@@H]1C[C@H](C2CCN(Cc3cccs3)CC2)[C@@H](O)[C@H]1O [Compound 526] please.
Result: 6.00 to 7.00

====

Biological target: KMT9 (Homo sapiens)
Sequence (Q9Y5N5 1-214): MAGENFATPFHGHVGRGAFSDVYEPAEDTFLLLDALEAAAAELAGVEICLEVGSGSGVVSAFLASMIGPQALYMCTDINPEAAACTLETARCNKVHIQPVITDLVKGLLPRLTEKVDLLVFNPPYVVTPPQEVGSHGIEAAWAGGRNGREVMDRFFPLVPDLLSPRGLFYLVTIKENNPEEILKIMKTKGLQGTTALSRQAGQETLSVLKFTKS
Sequence (Q9UI30 1-120 isoform Q9UI30-2 partner): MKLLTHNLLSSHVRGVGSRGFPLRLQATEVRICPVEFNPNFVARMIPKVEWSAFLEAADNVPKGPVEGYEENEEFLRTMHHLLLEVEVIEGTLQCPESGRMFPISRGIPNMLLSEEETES
Assay: KMT9 methyltransferase inhibition assay, 3H-SAM scintillation (entries 1-154)
Format: biochemical
Conditions: entries 1-154: 3H-SAM assay, 25 nM KMT9, 5 μM ETF1
Endpoint Label: IC50

Previously resolved entries follow.
CNc1ncnc2c1ccn2[C@@H]1C[C@H](CN2CCCC23CCNCC3)[C@@H](O)[C@H]1O	> 10 µM
CNc1ncnc2c1c(Br)cn2[C@@H]1C[C@H](CNCCCNCCc2cccc(Oc3ccccc3)c2)[C@@H](O)[C@H]1O	> 10 µM
CC1CCNc2ncnc3c2c1cn3[C@@H]1C[C@H](CN)[C@@H](O)[C@H]1O (stereo partly shown)	> 10 µM
Nc1ncnc2c1c(Br)cn2[C@@H]1C[C@H](CN2CC(CNCCc3ccccc3)C2)[C@@H](O)[C@H]1O	0.1 to 1 µM
Nc1ncnc2c1c(-c1ccncc1)cn2[C@@H]1C[C@H](CNCCCNCCc2ccccc2)[C@@H](O)[C@H]1O	0.1 to 1 µM

We now examine a further compound.
Problem: Report IC50 for `CNc1ncnc2c1ccn2[C@@H]1C[C@H](/C=C/CCCNCCc2ccccc2)[C@@H](O)[C@H]1O` please.
Result: > 10 µM

====

Reported Kd by item:
Target: UniProt Q9Y5N5
Assay: Microscale thermophoresis (MST) KMT9 binding
Settings: microscale thermophoresis, His-tag labelled KMT9 (20 nM); read-out: MST
Experimental: To determine the binding affinity of the compounds according to the present invention and KMT9, microscale thermophoresis (MST) analysis was performed with a NanoTemper Monolith NT.115 instrument (NanoTemper Technologies GmbH). KMT9 was labelled with a RED-Tris-NTA labelling kit (NanoTemper Technologies GmbH) based on the manufacturer's instructions. Buffer including 25 mM HEPES (pH 7.5), 100 mM NaCl, 1 mM DTT and 0.05% Tween was used for the reaction buffer. […]

Previously resolved entries follow.
Nc1ncnc2c1c(Br)cn2[C@@H]1C[C@H](CNCCCNCc2ccc(F)cc2)[C@@H](O)[C@H]1O	100 to 1000 nM
Nc1ncnc2c1c(-c1ncn[nH]1)cn2[C@@H]1C[C@H](CNCCCNCCc2ccccc2)[C@@H](O)[C@H]1O	10 to 100 nM
Nc1ncnc2c1c(-c1nc(Cc3ccccc3)cs1)cn2[C@@H]1C[C@H](C2CCNCC2)[C@@H](O)[C@H]1O	10 to 100 nM
CCN(CCCNCCc1cccc(Oc2ccccc2)c1)C[C@H]1C[C@@H](n2ccc3c(NC)ncnc32)[C@H](O)[C@@H]1O	100 to 1000 nM

Problem: Report Kd for `CNc1ncnc2c1ccn2[C@@H]1C[C@H](Cn2ccnc2CCCNCCc2cccc(Oc3ccccc3)c2)[C@@H](O)[C@H]1O` please.
Result: > 1000 nM

Problem: Report Kd for `CNc1ncnc2c1ccn2[C@@H]1C[C@H](CSCCN)[C@@H](O)[C@H]1O` please.
Result: > 1000 nM

Problem: Report Kd for `CNc1ncnc2c1ccn2[C@@H]1C[C@H](CS(=O)(=O)CCNCCc2ccccc2)[C@@H](O)[C@H]1O` please.
Result: > 1000 nM

====

Reported Kd by item:
Molecular target: KMT9 (Homo sapiens, UniProt Q9Y5N5)
Experiment: Microscale thermophoresis (MST) KMT9 binding
Details: His-tag labelled KMT9 20 nM; read-out: MST (Kd)
Method: To determine the binding affinity of the compounds according to the present invention and KMT9, microscale thermophoresis (MST) analysis was performed with a NanoTemper Monolith NT.115 instrument (NanoTemper Technologies GmbH). KMT9 was labelled with a RED-Tris-NTA labelling kit (NanoTemper Technologies GmbH) based on the manufacturer's instructions. Buffer including 25 mM HEPES (pH 7.5), 100 mM NaCl, 1 mM DTT and 0.05% Tween was used for the reaction buffer. […]

Previously resolved entries follow.
CC(=O)c1cccc([C@H]2C[C@@H](n3ccc4c(N)ncnc43)[C@H](O)[C@@H]2O)c1 [Compound 408]	> 1000 nM
Nc1nc(Cl)nc2c1ccn2[C@@H]1C[C@H](c2ccc(O)cc2)[C@@H](O)[C@H]1O [Compound 655]	≤ 10 nM
Nc1nc(Cl)nc2c1c(-c1nc(Cc3ccccc3)cs1)cn2[C@@H]1C[C@H](C2CCN(Cc3ccn[nH]3)CC2)[C@@H](O)[C@H]1O [Compound 524]	10 to 100 nM

We now examine a further compound.
Problem: Observed Kd on KMT9 (Homo sapiens, UniProt Q9Y5N5) for COc1cc([C@H]2C[C@@H](n3cc(Br)c4c(N)nc(Cl)nc43)[C@H](O)[C@@H]2O)ccn1 [Compound 680] , please.
Result: 10 to 100 nM
